These entries and their values trace back to patent US20230312528A1.

TEST SYSTEM: human NaV1.8 (Homo sapiens (Human), UniProt Q9Y5Y9)
Sequence (Q9Y5Y9 whole entry): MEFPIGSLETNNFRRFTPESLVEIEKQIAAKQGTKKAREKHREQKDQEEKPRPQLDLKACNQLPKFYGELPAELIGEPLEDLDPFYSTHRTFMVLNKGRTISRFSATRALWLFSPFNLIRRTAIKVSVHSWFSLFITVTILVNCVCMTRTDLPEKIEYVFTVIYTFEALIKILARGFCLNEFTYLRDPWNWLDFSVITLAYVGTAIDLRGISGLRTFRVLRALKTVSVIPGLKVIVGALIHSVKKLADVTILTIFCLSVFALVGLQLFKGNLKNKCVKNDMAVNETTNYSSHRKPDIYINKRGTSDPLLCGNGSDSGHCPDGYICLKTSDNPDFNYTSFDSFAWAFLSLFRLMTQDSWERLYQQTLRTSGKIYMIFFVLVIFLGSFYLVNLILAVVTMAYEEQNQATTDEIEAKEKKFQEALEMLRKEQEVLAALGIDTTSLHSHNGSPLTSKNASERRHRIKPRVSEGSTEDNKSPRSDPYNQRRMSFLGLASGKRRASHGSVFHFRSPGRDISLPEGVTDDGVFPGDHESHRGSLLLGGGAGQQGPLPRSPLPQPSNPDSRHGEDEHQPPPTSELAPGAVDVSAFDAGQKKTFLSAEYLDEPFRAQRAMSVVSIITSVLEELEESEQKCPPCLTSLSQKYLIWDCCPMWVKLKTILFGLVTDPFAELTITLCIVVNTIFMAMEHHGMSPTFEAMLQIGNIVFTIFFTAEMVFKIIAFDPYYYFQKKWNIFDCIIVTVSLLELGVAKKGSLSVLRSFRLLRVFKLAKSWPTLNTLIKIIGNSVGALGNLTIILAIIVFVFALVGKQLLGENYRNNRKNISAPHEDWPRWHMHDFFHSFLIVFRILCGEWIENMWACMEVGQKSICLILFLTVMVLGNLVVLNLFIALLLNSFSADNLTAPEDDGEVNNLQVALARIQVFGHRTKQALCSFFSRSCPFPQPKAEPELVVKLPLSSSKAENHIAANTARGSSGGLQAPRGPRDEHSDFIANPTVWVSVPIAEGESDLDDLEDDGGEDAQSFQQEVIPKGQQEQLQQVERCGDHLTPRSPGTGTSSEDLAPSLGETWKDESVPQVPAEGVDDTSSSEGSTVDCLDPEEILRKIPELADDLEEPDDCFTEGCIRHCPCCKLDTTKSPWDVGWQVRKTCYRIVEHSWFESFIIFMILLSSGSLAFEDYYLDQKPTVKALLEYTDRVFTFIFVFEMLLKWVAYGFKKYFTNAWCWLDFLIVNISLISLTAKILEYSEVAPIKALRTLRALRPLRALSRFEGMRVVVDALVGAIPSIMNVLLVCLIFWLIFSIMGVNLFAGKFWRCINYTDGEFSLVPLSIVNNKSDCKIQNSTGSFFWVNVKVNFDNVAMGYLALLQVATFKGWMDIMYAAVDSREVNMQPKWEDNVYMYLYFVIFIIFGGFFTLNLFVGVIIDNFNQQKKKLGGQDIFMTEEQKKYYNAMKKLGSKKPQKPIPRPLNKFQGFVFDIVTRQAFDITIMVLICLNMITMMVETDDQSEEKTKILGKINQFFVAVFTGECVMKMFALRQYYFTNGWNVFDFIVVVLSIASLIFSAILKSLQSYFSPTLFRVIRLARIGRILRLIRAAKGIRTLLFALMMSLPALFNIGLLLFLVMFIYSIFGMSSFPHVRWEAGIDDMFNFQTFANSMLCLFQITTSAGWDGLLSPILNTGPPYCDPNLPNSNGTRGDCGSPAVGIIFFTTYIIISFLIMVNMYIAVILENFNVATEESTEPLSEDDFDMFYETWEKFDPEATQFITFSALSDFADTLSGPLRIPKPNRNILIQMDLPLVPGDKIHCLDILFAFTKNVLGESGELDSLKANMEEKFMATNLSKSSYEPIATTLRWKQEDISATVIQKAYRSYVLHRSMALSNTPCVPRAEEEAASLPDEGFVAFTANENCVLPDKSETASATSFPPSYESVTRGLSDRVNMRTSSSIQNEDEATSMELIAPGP
RUN DESCRIPTION: Nav1.8 Qube automated patch-clamp assay
Assay type: cell-based
CONDITION PARAMETERS: human NaV1.8 stably expressed in HEK 293 cells; automated 384-well patch-clamp; resting or inactivated state not specified
MEASUREMENT KIND: IC50 (nM)

I. O=C1NC[C@@H](C(=O)NC(c2ccc(F)c(Cl)c2)c2nc3ccccc3o2)N1 (single isomer, unassigned)
II. CN1CCC(C(NC(=O)[C@@H]2CNC(=O)N2)c2ccc(F)c(Cl)c2F)CC1C(F)(F)F (single isomer, unassigned) [Example 78B]
III. O=C1NC[C@@H](C(=O)NC(c2ccc(F)c(Cl)c2F)C2COC(C(F)(F)F)C2)N1 (single isomer, unassigned) [Example 79B]
Sort low-to-high on IC50, please. Please list the labels according to the requested order.
I, III, II
(I: 8.6 nM, III: 190 nM, II: 9500 nM)
